Record form. Attribute: inhibition. Fill in for each entry.
- Target entity: Acetylcholinesterase (Electrophorus electricus) (UniProt O42275)
- Sequence (O42275 24-633 limits assumed): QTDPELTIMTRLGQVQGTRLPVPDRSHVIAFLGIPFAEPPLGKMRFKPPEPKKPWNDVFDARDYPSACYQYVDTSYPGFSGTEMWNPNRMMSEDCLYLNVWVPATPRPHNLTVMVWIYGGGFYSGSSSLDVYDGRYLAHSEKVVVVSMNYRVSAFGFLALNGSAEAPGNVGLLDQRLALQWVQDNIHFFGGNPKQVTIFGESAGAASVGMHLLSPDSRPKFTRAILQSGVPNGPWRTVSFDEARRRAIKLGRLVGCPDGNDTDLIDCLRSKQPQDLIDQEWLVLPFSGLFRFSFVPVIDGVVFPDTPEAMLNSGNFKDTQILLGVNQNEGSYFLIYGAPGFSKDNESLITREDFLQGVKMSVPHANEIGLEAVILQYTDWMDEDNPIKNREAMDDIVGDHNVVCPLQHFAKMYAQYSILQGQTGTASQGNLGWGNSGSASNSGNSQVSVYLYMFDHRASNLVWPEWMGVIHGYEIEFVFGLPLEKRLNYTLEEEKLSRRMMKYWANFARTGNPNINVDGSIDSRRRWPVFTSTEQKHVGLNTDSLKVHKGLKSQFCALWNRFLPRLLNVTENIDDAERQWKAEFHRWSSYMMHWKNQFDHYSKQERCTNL
- Cond: at 2 mg/mL
- Description: Inhibition of electric eel AChE at 2 mg/ml by Ellman's method
Answers are plain numbers, in %.

Guide cases for inhibition, answers given:
| Compound | Target entity | Assay endpoint | Display unit | Result |
| --- | --- | --- | --- | --- |
| O=C1C[C@@H](c2ccc(O)c(O)c2)Oc2cc(O[C@@H]3O[C@H](CO)[C@@H](O)[C@H](O)[C@H]3O)cc(O)c21 | Acetylcholinesterase (Electrophorus electricus) (UniProt O42275) | inhibition | % | 25.4 |
| C=C(C)[C@@H]1CC[C@]2(C(=O)O)CC[C@]3(C)[C@H](CC[C@@H]4[C@@]5(C)CC[C@H](O)C(C)(C)[C@@H]5CC[C@]43C)[C@@H]12 | Acetylcholinesterase (Electrophorus electricus) (UniProt O42275) | inhibition | % | -5.33 |
| c1cc2c(cc1[C@H]1OC[C@@H]3[C@H]1CO[C@H]3c1ccc3c(c1)OCO3)OCO2 | Acetylcholinesterase (Electrophorus electricus) (UniProt O42275) | inhibition | % | 4.7 |
| C[C@H]1C(=O)CC[C@@H]2[C@]1(C)CC[C@H]1[C@@]2(C)CC[C@@]2(C)[C@@H]3CC(C)(C)CC[C@]3(C)CC[C@]12C | Acetylcholinesterase (Electrophorus electricus) (UniProt O42275) | inhibition | % | -3.69 |
| COc1ccc(C[C@H]2NC[C@H](O)[C@H]2OC(C)=O)cc1 | Acetylcholinesterase (Electrophorus electricus) (UniProt O42275) | inhibition | % | -1.2 |

Below are 4 compounds. Give each one its inhibition.
1. CN1CCc2cc3c(cc2[C@H]1[C@@H]1OC(=O)c2c1ccc1c2OCO1)OCO3
2. O[C@H]1[C@H]2[C@H](O)CCCN2C[C@H]1O
3. CCN1C[C@]2(COC)CC[C@H](OC)[C@]34C5C[C@@H]6[C@@H](OC)C[C@@]7(OCO[C@@]7(C13)[C@@H](O)C24)C5[C@H]6OC (some centres not stated)
4. CC[C@@]1(O)C(=O)OCc2c1cc1n(c2=O)Cc2cc3cc(O)ccc3nc2-1

20.7
5.09
23.4
-5.24

Below are 2 compounds. Give each one its inhibition.
1. CCOC(=O)Oc1c(OC)cc(C(=O)O[C@@H]2C[C@@H]3CN4CCc5c([nH]c6cc(OC)ccc56)[C@H]4C[C@@H]3[C@H](C(=O)OC)[C@H]2OC)cc1OC
2. C[C@@H]1O[C@H](C[N+](C)(C)C)C[C@H]1O

-6.1
-6.43

Below are 5 compounds. Give each one its inhibition.
1. C[C@H]([C@H](O)CCC(C)(C)O)[C@H]1CC[C@@]2(O)C3=CC(=O)[C@@H]4C[C@@H](O)[C@@H](O)C[C@]4(C)[C@H]3CC[C@]12C
2. COc1ccc(/C=C/C(=O)c2c(O)cc(OC)cc2OC)cc1
3. COC1=CC(=O)C[C@@H](C)[C@]12Oc1c(Cl)c(OC)cc(OC)c1C2=O
4. O=c1c(O[C@@H]2O[C@H](CO)[C@@H](O)[C@H](O)[C@H]2O)c(-c2ccc(O)c(O)c2)oc2cc(O)cc(O)c12
5. COc1c2occc2c(OC)c2c(=O)cc(C)oc12

1. -0.57
2. -6.03
3. -8.73
4. 0.12
5. 7.57

Reported inhibition for CC1=CC(=O)c2ccccc2C1=O : what is it?
17.8
